Measured values drawn from the supplement of paper PMC6757056 for this set.

B1: library; a variant is named by its letters at N, in order (parent)
chain: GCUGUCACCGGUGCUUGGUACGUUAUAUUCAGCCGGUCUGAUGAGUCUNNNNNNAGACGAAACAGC

# Variants of: B1
# measurement notes: normalized RNA/DNA level with ligand (relative to sTRSVctl = 100) (log10 (% of sTRSVctl)); HEK293T overexpressing SLC46A1; ligand concentration (+) RNA-Seq: 6 mM; higher = less ribozyme self-cleavage, higher mRNA level
# experimental parameters: with (6R,S)-folinic acid; ligand present: yes
Listing: normalized RNA/DNA level with ligand (log10) of selected variants
reported property: normalized RNA/DNA level with ligand (log10)

sequence entry: GCUGUCACCGGUGCUUGGUACGUUAUAUUCAGCCGGUCUGAUGAGUCUCUCUUCAGACGAAACAGC [CUCUUC]
test result: 2.01
//
sequence entry: GCUGUCACCGGUGCUUGGUACGUUAUAUUCAGCCGGUCUGAUGAGUCUACCGAUAGACGAAACAGC [ACCGAU]
test result: 1.99
//
sequence entry: GCUGUCACCGGUGCUUGGUACGUUAUAUUCAGCCGGUCUGAUGAGUCUAAGGAGAGACGAAACAGC [AAGGAG]
test result: 2
//
sequence entry: GCUGUCACCGGUGCUUGGUACGUUAUAUUCAGCCGGUCUGAUGAGUCUAUCCGUAGACGAAACAGC [AUCCGU]
test result: 2.01
//
sequence entry: GCUGUCACCGGUGCUUGGUACGUUAUAUUCAGCCGGUCUGAUGAGUCUGUUGGUAGACGAAACAGC [GUUGGU]
test result: 2.02
//
sequence entry: GCUGUCACCGGUGCUUGGUACGUUAUAUUCAGCCGGUCUGAUGAGUCUUCGAAUAGACGAAACAGC [UCGAAU]
test result: 2
//
sequence entry: GCUGUCACCGGUGCUUGGUACGUUAUAUUCAGCCGGUCUGAUGAGUCUCGCUAGAGACGAAACAGC [CGCUAG]
test result: 2.02
//
sequence entry: GCUGUCACCGGUGCUUGGUACGUUAUAUUCAGCCGGUCUGAUGAGUCUUCAGUCAGACGAAACAGC [UCAGUC]
test result: 2.01
//
sequence entry: GCUGUCACCGGUGCUUGGUACGUUAUAUUCAGCCGGUCUGAUGAGUCUCGGAGUAGACGAAACAGC [CGGAGU]
test result: 2.02
//
sequence entry: GCUGUCACCGGUGCUUGGUACGUUAUAUUCAGCCGGUCUGAUGAGUCUGUACCCAGACGAAACAGC [GUACCC]
test result: 2.03
//
sequence entry: GCUGUCACCGGUGCUUGGUACGUUAUAUUCAGCCGGUCUGAUGAGUCUAACGUCAGACGAAACAGC [AACGUC]
test result: 2.04
//
sequence entry: GCUGUCACCGGUGCUUGGUACGUUAUAUUCAGCCGGUCUGAUGAGUCUGAUACUAGACGAAACAGC [GAUACU]
test result: 2.01
//
sequence entry: GCUGUCACCGGUGCUUGGUACGUUAUAUUCAGCCGGUCUGAUGAGUCUUAGUCCAGACGAAACAGC [UAGUCC]
test result: 2.03
//
sequence entry: GCUGUCACCGGUGCUUGGUACGUUAUAUUCAGCCGGUCUGAUGAGUCUUGGGCGAGACGAAACAGC [UGGGCG]
test result: 2.01
//
sequence entry: GCUGUCACCGGUGCUUGGUACGUUAUAUUCAGCCGGUCUGAUGAGUCUUGAAUUAGACGAAACAGC [UGAAUU]
test result: 2
//
sequence entry: GCUGUCACCGGUGCUUGGUACGUUAUAUUCAGCCGGUCUGAUGAGUCUGCGCGAAGACGAAACAGC [GCGCGA]
test result: 2.05
//
sequence entry: GCUGUCACCGGUGCUUGGUACGUUAUAUUCAGCCGGUCUGAUGAGUCUCGGCGUAGACGAAACAGC [CGGCGU]
test result: 2.02
//
sequence entry: GCUGUCACCGGUGCUUGGUACGUUAUAUUCAGCCGGUCUGAUGAGUCUCCUAGUAGACGAAACAGC [CCUAGU]
test result: 2.06
//
sequence entry: GCUGUCACCGGUGCUUGGUACGUUAUAUUCAGCCGGUCUGAUGAGUCUCACGAGAGACGAAACAGC [CACGAG]
test result: 2
//
sequence entry: GCUGUCACCGGUGCUUGGUACGUUAUAUUCAGCCGGUCUGAUGAGUCUUAUCGGAGACGAAACAGC [UAUCGG]
test result: 1.94
//
sequence entry: GCUGUCACCGGUGCUUGGUACGUUAUAUUCAGCCGGUCUGAUGAGUCUUUACCUAGACGAAACAGC [UUACCU]
test result: 2.05
//
sequence entry: GCUGUCACCGGUGCUUGGUACGUUAUAUUCAGCCGGUCUGAUGAGUCUGUCGGGAGACGAAACAGC [GUCGGG]
test result: 2.05
//
sequence entry: GCUGUCACCGGUGCUUGGUACGUUAUAUUCAGCCGGUCUGAUGAGUCUAACGGUAGACGAAACAGC [AACGGU]
test result: 2
//
sequence entry: GCUGUCACCGGUGCUUGGUACGUUAUAUUCAGCCGGUCUGAUGAGUCUAGUUUUAGACGAAACAGC [AGUUUU]
test result: 1.98
//
sequence entry: GCUGUCACCGGUGCUUGGUACGUUAUAUUCAGCCGGUCUGAUGAGUCUCUUUGAAGACGAAACAGC [CUUUGA]
test result: 2.05
//
sequence entry: GCUGUCACCGGUGCUUGGUACGUUAUAUUCAGCCGGUCUGAUGAGUCUAACAAUAGACGAAACAGC [AACAAU]
test result: 1.97
//
sequence entry: GCUGUCACCGGUGCUUGGUACGUUAUAUUCAGCCGGUCUGAUGAGUCUGCUCCUAGACGAAACAGC [GCUCCU]
test result: 2.07
//
sequence entry: GCUGUCACCGGUGCUUGGUACGUUAUAUUCAGCCGGUCUGAUGAGUCUCGGACUAGACGAAACAGC [CGGACU]
test result: 2.01
//
sequence entry: GCUGUCACCGGUGCUUGGUACGUUAUAUUCAGCCGGUCUGAUGAGUCUACCCUCAGACGAAACAGC [ACCCUC]
test result: 2.02
//
sequence entry: GCUGUCACCGGUGCUUGGUACGUUAUAUUCAGCCGGUCUGAUGAGUCUGGUGACAGACGAAACAGC [GGUGAC]
test result: 2.01
//
sequence entry: GCUGUCACCGGUGCUUGGUACGUUAUAUUCAGCCGGUCUGAUGAGUCUUAUUUAAGACGAAACAGC [UAUUUA]
test result: 2.01
//
sequence entry: GCUGUCACCGGUGCUUGGUACGUUAUAUUCAGCCGGUCUGAUGAGUCUCUCCAGAGACGAAACAGC [CUCCAG]
test result: 2.05
//
sequence entry: GCUGUCACCGGUGCUUGGUACGUUAUAUUCAGCCGGUCUGAUGAGUCUCGGUUGAGACGAAACAGC [CGGUUG]
test result: 2
//
sequence entry: GCUGUCACCGGUGCUUGGUACGUUAUAUUCAGCCGGUCUGAUGAGUCUGGGAAGAGACGAAACAGC [GGGAAG]
test result: 2.04
//
sequence entry: GCUGUCACCGGUGCUUGGUACGUUAUAUUCAGCCGGUCUGAUGAGUCUUAUGGUAGACGAAACAGC [UAUGGU]
test result: 1.98
//
sequence entry: GCUGUCACCGGUGCUUGGUACGUUAUAUUCAGCCGGUCUGAUGAGUCUUAUUAAAGACGAAACAGC [UAUUAA]
test result: 1.98
//
sequence entry: GCUGUCACCGGUGCUUGGUACGUUAUAUUCAGCCGGUCUGAUGAGUCUCUGUCAAGACGAAACAGC [CUGUCA]
test result: 2.07
//
sequence entry: GCUGUCACCGGUGCUUGGUACGUUAUAUUCAGCCGGUCUGAUGAGUCUAAGCCAAGACGAAACAGC [AAGCCA]
test result: 2.03
//
sequence entry: GCUGUCACCGGUGCUUGGUACGUUAUAUUCAGCCGGUCUGAUGAGUCUCCUUGCAGACGAAACAGC [CCUUGC]
test result: 2.05
//
sequence entry: GCUGUCACCGGUGCUUGGUACGUUAUAUUCAGCCGGUCUGAUGAGUCUUAUUUUAGACGAAACAGC [UAUUUU]
test result: 2.02
//
sequence entry: GCUGUCACCGGUGCUUGGUACGUUAUAUUCAGCCGGUCUGAUGAGUCUUAUCUCAGACGAAACAGC [UAUCUC]
test result: 2.03
//
sequence entry: GCUGUCACCGGUGCUUGGUACGUUAUAUUCAGCCGGUCUGAUGAGUCUUCCGUGAGACGAAACAGC [UCCGUG]
test result: 1.98
//
sequence entry: GCUGUCACCGGUGCUUGGUACGUUAUAUUCAGCCGGUCUGAUGAGUCUUCUUCAAGACGAAACAGC [UCUUCA]
test result: 2.04
//
sequence entry: GCUGUCACCGGUGCUUGGUACGUUAUAUUCAGCCGGUCUGAUGAGUCUGUUGUCAGACGAAACAGC [GUUGUC]
test result: 2.02
//
sequence entry: GCUGUCACCGGUGCUUGGUACGUUAUAUUCAGCCGGUCUGAUGAGUCUAGGACGAGACGAAACAGC [AGGACG]
test result: 2.03
//
sequence entry: GCUGUCACCGGUGCUUGGUACGUUAUAUUCAGCCGGUCUGAUGAGUCUAUGCUGAGACGAAACAGC [AUGCUG]
test result: 2
//
sequence entry: GCUGUCACCGGUGCUUGGUACGUUAUAUUCAGCCGGUCUGAUGAGUCUGGUGAUAGACGAAACAGC [GGUGAU]
test result: 2.03
//
sequence entry: GCUGUCACCGGUGCUUGGUACGUUAUAUUCAGCCGGUCUGAUGAGUCUCCACUCAGACGAAACAGC [CCACUC]
test result: 2.01
//
sequence entry: GCUGUCACCGGUGCUUGGUACGUUAUAUUCAGCCGGUCUGAUGAGUCUGCGAAUAGACGAAACAGC [GCGAAU]
test result: 2.05
//
sequence entry: GCUGUCACCGGUGCUUGGUACGUUAUAUUCAGCCGGUCUGAUGAGUCUCGGCCCAGACGAAACAGC [CGGCCC]
test result: 2.04
//
sequence entry: GCUGUCACCGGUGCUUGGUACGUUAUAUUCAGCCGGUCUGAUGAGUCUUAGUAGAGACGAAACAGC [UAGUAG]
test result: 1.93
//
sequence entry: GCUGUCACCGGUGCUUGGUACGUUAUAUUCAGCCGGUCUGAUGAGUCUACGGCAAGACGAAACAGC [ACGGCA]
test result: 2.04
//
sequence entry: GCUGUCACCGGUGCUUGGUACGUUAUAUUCAGCCGGUCUGAUGAGUCUUGAACCAGACGAAACAGC [UGAACC]
test result: 2
//
sequence entry: GCUGUCACCGGUGCUUGGUACGUUAUAUUCAGCCGGUCUGAUGAGUCUGCAGGGAGACGAAACAGC [GCAGGG]
test result: 2.04
//
sequence entry: GCUGUCACCGGUGCUUGGUACGUUAUAUUCAGCCGGUCUGAUGAGUCUAUUUUCAGACGAAACAGC [AUUUUC]
test result: 2
//
sequence entry: GCUGUCACCGGUGCUUGGUACGUUAUAUUCAGCCGGUCUGAUGAGUCUCCCAUGAGACGAAACAGC [CCCAUG]
test result: 2
//
sequence entry: GCUGUCACCGGUGCUUGGUACGUUAUAUUCAGCCGGUCUGAUGAGUCUACGGUUAGACGAAACAGC [ACGGUU]
test result: 2.01
//
sequence entry: GCUGUCACCGGUGCUUGGUACGUUAUAUUCAGCCGGUCUGAUGAGUCUCUCACUAGACGAAACAGC [CUCACU]
test result: 1.99
//
sequence entry: GCUGUCACCGGUGCUUGGUACGUUAUAUUCAGCCGGUCUGAUGAGUCUUUAUAUAGACGAAACAGC [UUAUAU]
test result: 2
//
sequence entry: GCUGUCACCGGUGCUUGGUACGUUAUAUUCAGCCGGUCUGAUGAGUCUCAGCUUAGACGAAACAGC [CAGCUU]
test result: 2.01
//
sequence entry: GCUGUCACCGGUGCUUGGUACGUUAUAUUCAGCCGGUCUGAUGAGUCUCGGCGCAGACGAAACAGC [CGGCGC]
test result: 2.05
